Molecular target: Matrilysin (Homo sapiens)
Sequence (P09237 whole entry): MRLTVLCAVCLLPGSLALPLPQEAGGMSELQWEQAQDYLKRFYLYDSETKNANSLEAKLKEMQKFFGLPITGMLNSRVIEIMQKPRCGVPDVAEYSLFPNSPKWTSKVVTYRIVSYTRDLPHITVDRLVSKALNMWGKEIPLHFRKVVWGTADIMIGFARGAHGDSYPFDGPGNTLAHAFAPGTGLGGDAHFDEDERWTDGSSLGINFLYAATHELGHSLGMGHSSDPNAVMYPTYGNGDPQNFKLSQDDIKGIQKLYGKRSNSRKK
Assay: Inhibition of recombinant human MMP7 using MOCAc-Pro-Leu-Gly-Leu-A2pr-(Dnp)-Ala-Arg-NH2 as substrate preincubated with compound for 15 mins followed by substrate addition and measured after 2 hrs by fluorescence based analysis
Numbered stars: 1 amine (or outer) side, 2 acyl side, 3 side chain; on linkers, the order of the positions; unused ones are H or OH. Square brackets hold non-standard residues; d marks the D form. Peptide text beside a SMILES is read from it. * marks the point of attachment. Benzenesulfonyl(4-Cl,3-CF3) = O=S(=O)(c1ccc(Cl)c(C(F)(F)F)c1)*; Ala(thiazol-2-yl) = N[C@@H](Cc1nccs1)C(=O)O; Ala(4-thiazolyl) = N[C@@H](Cc1cscn1)C(=O)O; Phe(3-I) = N[C@@H](Cc1cccc(I)c1)C(=O)O; Phe(4-I) = N[C@@H](Cc1ccc(I)cc1)C(=O)O; γGlu = O=C(O)[C@H](CCC(=O)[*:2])N[*:1]; hPhe = N[C@@H](CCc1ccccc1)C(=O)O; 3Pal = N[C@@H](Cc1cccnc1)C(=O)O; Phg = N[C@H](C(=O)O)c1ccccc1; Tle = CC(C)(C)[C@H](N)C(=O)O; β3hP = O=C(O)C[C@@H]1CCCN1
Below, each entry is listed alongside its reported pIC50.
pIC50 (log units): -log10 of the concentration in mol/L.

Solved entries (count: 5):
CC(C)(C)[C@H](NC(=O)[C@H](Cc1cccnc1)NC(=O)CNC(=O)CC[C@H](NS(=O)(=O)c1ccc(Cl)c(C(F)(F)F)c1)C(=O)O)C(=O)N1CCC[C@H]1CC(N)=O ({Benzenesulfonyl(4-Cl,3-CF3)-γGlu}-G[3Pal][Tle][β3hP]-NH2) : 8.77
CC(C)(C)[C@H](NC(=O)[C@H](Cc1ccc(I)cc1)NC(=O)CNC(=O)CC[C@H](NS(=O)(=O)c1ccc(Cl)c(C(F)(F)F)c1)C(=O)O)C(=O)N1CCC[C@H]1CC(N)=O ({Benzenesulfonyl(4-Cl,3-CF3)-γGlu}-G[Phe(4-I)][Tle][β3hP]-NH2) : 8.08
CC(C)(C)[C@H](NC(=O)[C@H](CCc1ccccc1)NC(=O)CNC(=O)CC[C@H](NS(=O)(=O)c1ccc(Cl)c(C(F)(F)F)c1)C(=O)O)C(=O)N1CCC[C@H]1CC(N)=O ({Benzenesulfonyl(4-Cl,3-CF3)-γGlu}-G[hPhe][Tle][β3hP]-NH2) : 7.10
CC(C)(C)[C@H](NC(=O)[C@@H](NC(=O)CNC(=O)CC[C@H](NS(=O)(=O)c1ccc(Cl)c(C(F)(F)F)c1)C(=O)O)c1ccccc1)C(=O)N1CCC[C@H]1CC(N)=O ({Benzenesulfonyl(4-Cl,3-CF3)-γGlu}-G[Phg][Tle][β3hP]-NH2) : 6.42
CC(C)(C)[C@H](NC(=O)[C@H](Cc1cscn1)NC(=O)CNC(=O)CC[C@H](NS(=O)(=O)c1ccc(Cl)c(C(F)(F)F)c1)C(=O)O)C(=O)N1CCC[C@H]1CC(N)=O ({Benzenesulfonyl(4-Cl,3-CF3)-γGlu}-G[Ala(4-thiazolyl)][Tle][β3hP]-NH2) : 8.42

## Input Quick check: pIC50 of CC(C)(C)[C@H](NC(=O)[C@H](Cc1cccc(I)c1)NC(=O)CNC(=O)CC[C@H](NS(=O)(=O)c1ccc(Cl)c(C(F)(F)F)c1)C(=O)O)C(=O)N1CCC[C@H]1CC(N)=O ({Benzenesulfonyl(4-Cl,3-CF3)-γGlu}-G[Phe(3-I)][Tle][β3hP]-NH2) ?
## Output 7.92

## Input Quick check: pIC50 of CC(C)(C)[C@H](NC(=O)[C@H](Cc1nccs1)NC(=O)CNC(=O)CC[C@H](NS(=O)(=O)c1ccc(Cl)c(C(F)(F)F)c1)C(=O)O)C(=O)N1CCC[C@H]1CC(N)=O ({Benzenesulfonyl(4-Cl,3-CF3)-γGlu}-G[Ala(thiazol-2-yl)][Tle][β3hP]-NH2) ?
## Output 8.02

## Input Quick check: pIC50 of CC(C)C[C@H](NC(=O)CNC(=O)CC[C@H](NS(=O)(=O)c1ccc(Cl)c(C(F)(F)F)c1)C(=O)O)C(=O)N[C@H](C(=O)N1CCC[C@H]1CC(N)=O)C(C)(C)C ({Benzenesulfonyl(4-Cl,3-CF3)-γGlu}-GL[Tle][β3hP]-NH2) ?
## Output 8.11

## Input Quick check: pIC50 of CC(C)(C)[C@H](NC(=O)[C@H](Cc1ccc(O)cc1)NC(=O)CNC(=O)CC[C@H](NS(=O)(=O)c1ccc(Cl)c(C(F)(F)F)c1)C(=O)O)C(=O)N1CCC[C@H]1CC(N)=O ({Benzenesulfonyl(4-Cl,3-CF3)-γGlu}-GY[Tle][β3hP]-NH2) ?
## Output 8.02
